test system: CEM cells HIV-1 protection, formazan growth assay; assay: NCI AIDS Antiviral Assay; settings: measured here: growth of uninfected CEM cells
pIC50: −log10 of the molar value. Where a SMILES comes first, the peptide text is derived from it. [ ]: non-standard residue; d: D form. The star is where a group is joined. ξ: configuration not given here. ξD = NC(CC(=O)O)C(=O)O; Ac3c = NC1(C(=O)O)CC1; Boc = CC(C)(C)OC(=O)*; OtBu = CC(C)(C)O*
The following compounds are listed with their measured pIC50 values.

compound	qualifier	pIC50
CCOC(=O)c1c(C)[nH]c(=S)c(C#N)c1-c1ccc(Cl)cc1	=	4.36
CCOC(=O)C1(c2ccccc2)CCC(=O)CC1	<	3.42
C(/Cc1ccc2c(c1)OCO2)=N\NC1=NCCCCN1	=	3.98
Cn1cnc([N+](=O)[O-])c1Sc1ccccc1C(=O)O	<	3.47
CC1C2CC3(c4ccccc4)CC(/C2=N\O)/C(=N/O)C1/C3=C\O (configuration not stated)	<	3.70
S=C1SCN(C(c2ccccc2)c2ccccc2)CN1C(c1ccccc1)c1ccccc1	=	5.35
c1ccc2c(CN3CCC(C4CCN(Cc5cccc6ccccc56)CC4)CC3)cccc2c1	=	6.03
CN(C)Cc1cc(C(=O)/C=C/c2ccc(Cl)cc2Cl)cc(CN(C)C)c1O	=	5.42
COC(=O)c1ccccc1C1=C(O)C(=O)C(c2ccccc2C(=O)OC)=C(O)C1=O	=	5.17
O=C(NCCCCN(CCCNC(=O)C(F)(F)F)Cc1ccc2ccccc2c1)C(F)(F)F	=	4.46
COC(=O)C1(NC(=O)C(CC(=O)OC(C)(C)C)NC(=O)OC(C)(C)C)CC1 (configuration not stated) (Boc-[ξD](OtBu)-[Ac3c]-OMe)	<	3.70
O=C(Nc1ccc(Cl)cc1)Nc1cccc2nsnc12	=	4.69
O=C(c1nc2ccc([N+](=O)[O-])cc2[nH]c1=O)C(O)c1ccc([N+](=O)[O-])cc1 (configuration not stated)	=	3.96
OCC1CC(F)C(n2cnc3c(NOCc4ccccc4)ncnc32)O1 (configuration not stated)	<	4.00
Cc1cccc(Cl)c1NC(N)=S	<	4.44
Cc1nc2c(nc1C)C(=O)C1=C(C2=O)C2C=CC1CC2	=	5.79
COc1ccc(C)cc1-c1cc(Sc2ccccc2)c(-c2cc(C)ccc2OC)o1	<	4.27
CC(=O)Nc1cc2nc3n(c2cc1C)CCC3OC(C)=O (configuration not stated)	<	3.70
CC1(c2nc3ccccc3[nH]2)CCC(C#N)C(C)(C)O1 (configuration not stated)	<	3.70
CC(=O)C1CC[C@@H](C)[C@@H]2CC[C@@]3(C)OO[C@@]12[C@H](OC=O)O3 (some centres not stated)	=	4.56
CNc1nncc2[nH]cnc12	<	3.70
O=C1C2CC=CCC2C(=O)N1n1c(Cc2ccccc2)n[nH]c1=O (configuration not stated)	<	3.70
O/N=C1/CCCc2nonc21	<	3.70
CSc1cc(-c2ccc(Cl)cc2)s[s+]1	=	3.94
CCc1cccc(C(C)(C)C)c1NC(=S)N/C=C(/C#N)C(N)=O	=	3.82
Nc1ccccc1SC(/C=C/NNC1=NC(c2ccccc2)C(c2ccccc2)=NN1)c1ccccc1 (configuration not stated)	=	5.37
Nc1nccc(CCc2ccccc2)n1	<	4.44
CO/C(=N\N=C\c1cccc(Cl)c1)c1ccncc1	=	4.08
COC1N(C2C=CC(CO)O2)C(=O)NC(=O)C1(C)Cl (configuration not stated)	=	2.99
Cc1ccc2nccc(/C=C/c3ccc(N(C)C)cc3)c2c1	=	5.61
COC(=O)c1nc(N)nc(C(=O)OC)c1C(=O)c1ccccc1	<	4.22
S=C1Cc2c(-c3ccccc3)cc(-c3ccc(Cl)cc3)nc2-c2ccccc2N1	=	5.47
Cc1nccn1Cc1c(N)nc(N)[nH]c1=O	<	3.70
ClC1=C(Cc2ccccc2)Cc2ccc3c(c21)CCC3	<	3.70
O=C1N[C@H]2CCCC[C@@H]2C(=O)N1OS(=O)(=O)c1ccccc1	<	3.70
NC(=O)C(=O)n1ncc(Cl)c(Cl)c1=O	<	4.51
Cc1ccc(N=NC(C2=NC(=O)CS2)c2nc3ccccc3[nH]2)cc1 (configuration not stated)	<	5.13
C=CCN1CCC2(CC1)NC(=O)c1ccccc1O2	<	3.70
O=C1CC2O[C@H](c3ccccc3)OC2CO1 (some centres not stated)	=	4.03
OCC1OC(n2cnc3cccnc32)CC1O (configuration not stated)	<	3.70
CC(c1ccc2c(c1)CCC1C2CC2OC23CC=CC(=O)[C@]13C)C1C[C@]2(C)O[C@]2(C)[C@H](O)O1 (some centres not stated)	=	4.34
COC(=O)c1cccc(C)c1C1CN=NC12Cc1c(ccc(C)c1C)C2=O (configuration not stated)	<	3.70
CC1c2c(cc(=O)[nH]c2O)C(=O)N1Cc1ccccc1 (configuration not stated)	=	3.52
CNS(=O)(=O)NNS(=O)(=O)c1ccc(Br)cc1	<	4.12
CNC(=O)Nc1ccncc1	<	3.70
C/C(=N\NC(=S)N1CCCCCC1)c1ccccn1	=	7.43
COc1cc2c(cc1O)CC1c3c(cc(O)c(OC)c3-2)CCN1C (configuration not stated)	=	4.16

----------
Below, each of the compounds is paired with its reported pEC50 value.
tested on: CEM cells HIV-1 protection, formazan growth assay; assay: NCI AIDS Antiviral Assay
pEC50: −log10 of the molar value. Where a SMILES comes first, the peptide text is derived from it.

compound	pEC50
CCCN1C(=O)c2cc(=O)n(Cc3ccccc3)c(O)c2C1C (configuration not stated)	< 3.94
CN1C(=O)CC(=O)N1/C(=C/c1ccccc1)c1ccccc1	< 3.70
CC(C(=O)O)c1ccc2oc(-c3ccc(Cl)cc3)nc2c1 (configuration not stated)	< 3.70
CN1C(=O)/C(=N/N(c2ccccc2)c2ccccc2)c2ccccc21	< 3.70
N#Cc1c[nH]c(=O)[nH]c1=O	< 3.70
CC(=O)CCCC(CC(C)O)[Si](C)(C)C (configuration not stated)	< 2.97
CC(=O)NC(CS)C(=O)NC(CO)C(=O)NC(CO)C(=O)NC(Cc1c[nH]c2ccccc12)C(=O)N1CCCC1C(=O)NC(CO)C(=O)NC(Cc1c[nH]c2ccccc12)C(=O)NC(Cc1c[nH]cn1)C(=O)NC(CO)C(=O)NC(Cc1c[nH]c2ccccc12)C(=O)NCC(=O)NCC(=O)NC(C)C(=O)NC(CCC(N)=O)C(=O)NC(CCCCN)C(=O)NC(C)C(=O)NC(CCCNC(=N)N)C(=O)NC(CCCCN)C(N)=O (configuration not stated) (Ac-CSSWPSWHSWGGAQKARK-NH2; configuration not given here)	< 4.70

----------
test system: CEM cells HIV-1 protection, formazan growth assay; assay: NCI AIDS Antiviral Assay; conditions: measured here: growth of uninfected CEM cells
pIC50: −log10 of the molar value.
parameter: pIC50

compound	target.entity	parameter	qualifier	numeric.result
O=Nc1c(-c2ccccc2)nc2ccccn12	CEM cells HIV-1 protection, formazan growth assay	pIC50	=	4.41
O=C(c1nc2ccc(Cl)cc2[nH]c1=O)C(O)c1ccccc1 (stereo unspecified)	CEM cells HIV-1 protection, formazan growth assay	pIC50	=	4.94
c1ccc(SSc2ccccc2)cc1	CEM cells HIV-1 protection, formazan growth assay	pIC50	=	5.25
CC1(C)C2CCC(C2)C1/C=C1/SC(=S)NC1=O (stereo unspecified)	CEM cells HIV-1 protection, formazan growth assay	pIC50	=	5.00
N#CC(=C(c1ccccc1)c1ccccc1)c1ccccc1	CEM cells HIV-1 protection, formazan growth assay	pIC50	<	3.82
COc1cccc2c1OC(c1ccc(Cl)cc1)C([N+](=O)[O-])=C2 (stereo unspecified)	CEM cells HIV-1 protection, formazan growth assay	pIC50	=	5.84
COc1cc(OCc2ccc3nc(-c4ccccc4)c(Cl)nc3c2)cc(OC)c1OC	CEM cells HIV-1 protection, formazan growth assay	pIC50	<	3.70
N#CCCN(CCC#N)c1ccc(/C=C2\SC(=S)NC2=O)cc1	CEM cells HIV-1 protection, formazan growth assay	pIC50	<	3.70
O=C1C/C(=C\c2ccccc2)C(=O)c2ccccc2N1	CEM cells HIV-1 protection, formazan growth assay	pIC50	=	4.90
CCOP(=O)(OCC)C(C)(CC)N/C(=N/C(NC(C)=O)(C(F)(F)F)C(F)(F)F)NC1=NC(C(F)(F)F)(C(F)(F)F)N=C(C(F)(F)F)O1 (stereo unspecified)	CEM cells HIV-1 protection, formazan growth assay	pIC50	=	4.84
O=C1Cc2nc(CO)c(CO)c(CO)c2CO1	CEM cells HIV-1 protection, formazan growth assay	pIC50	<	2.98

----------
system: CEM cells HIV-1 protection, formazan growth assay; experiment: NCI AIDS Antiviral Assay; conditions: measured here: growth of uninfected CEM cells
Where a SMILES comes first, the peptide text is derived from it. The star is where a group is joined. X11 = Clc1c(Cl)c(Cl)c(O*)c(Cl)c1Cl; Boc = CC(C)(C)OC(=O)*; OBn = c1ccc(CO*)cc1; Bn = c1ccc(C*)cc1
parameter: IC50 (µM)

molecule	target.entity	unit.of.measure	qualifier	numeric.result
COc1c(O)cc2c(c1O)C(=O)C1=C(CCCC1)C2=O	CEM cells HIV-1 protection, formazan growth assay	µM	=	12.3
Cc1cc(C)c(-c2noc(-c3ccc(Cl)cc3)c2C2=NCCCN2)c(C)c1	CEM cells HIV-1 protection, formazan growth assay	µM	=	24.5
CC(C)c1oc(=O)cc2c1C(O)C1OC(=O)C3(C)C(O)C4OC4C2(C)C13 (centres undefined)	CEM cells HIV-1 protection, formazan growth assay	µM	=	0.17
CC(C)C(N=C1CC2CCC1(C(=O)Nc1ccccc1O)C2(C)C)c1ccccc1 (centres undefined)	CEM cells HIV-1 protection, formazan growth assay	µM	=	32.4
OCCN1c2ccccc2Sc2ccc(Cl)cc21	CEM cells HIV-1 protection, formazan growth assay	µM	=	61.7
COc1ccc(C[C@H](N)C(=O)N2C[C@@H](CO)C[C@@H](n3cnc4c(N(C)C)ncnc43)C2)cc1	CEM cells HIV-1 protection, formazan growth assay	µM	>	275
COC(=O)/C(C#N)=C1\NC(=O)CC(c2ccccc2)C1C#N (centres undefined)	CEM cells HIV-1 protection, formazan growth assay	µM	=	57.5
CC(=O)/C=C(/C)[O-].CCN(CC)CCNCCN.O=N[O-].[Co+3].[O-][Cl+3]([O-])([O-])[O-]	CEM cells HIV-1 protection, formazan growth assay	µM	>	200
CCOC(=O)c1cn2c([nH]c3ccccc32)c(C#N)c1=O	CEM cells HIV-1 protection, formazan growth assay	µM	>	47.9
O=C1CCCC[C@H]1[C@H]1CCC[C@@H]([C@H]2CCCCC2=O)C1=O	CEM cells HIV-1 protection, formazan growth assay	µM	=	398
CCOC(=O)c1nc2c3c(ncn2n1)Oc1c(c(-c2ccccc2)nn1-c1ccccc1)C3c1ccc(Cl)cc1 (centres undefined)	CEM cells HIV-1 protection, formazan growth assay	µM	>	200
O=C(CC(=O)N(C(=O)c1ccccc1)c1ccc(Cl)cc1)N/N=C\c1ccccc1O	CEM cells HIV-1 protection, formazan growth assay	µM	>	200
NNC(=O)C(=O)N/N=C1\CCC(=O)CC1C(=O)CCC(=O)Nc1ccc(Cl)cc1 (centres undefined)	CEM cells HIV-1 protection, formazan growth assay	µM	>	32.4
CCCc1cc(=O)oc2c3c(cc(OC(C)CI)c12)O[C@H](C)[C@@H](C)C3=O (some centres undefined)	CEM cells HIV-1 protection, formazan growth assay	µM	=	21.4
O=C1c2ccncc2C(=O)c2c(O)ccc(O)c21	CEM cells HIV-1 protection, formazan growth assay	µM	=	3.24
N#C/C(=C\c1ccc(Cl)cc1)c1ccc(C(=O)O)cc1	CEM cells HIV-1 protection, formazan growth assay	µM	=	110
CCOC(=O)c1c(/C=N\Nc2ccccc2)nc2ccccc2c1-c1ccccc1	CEM cells HIV-1 protection, formazan growth assay	µM	=	26.3
Cc1ccc(Nc2nc(C)c(C(=O)C/C(=N\NC(N)=S)C(=O)Nc3ccc(Cl)cc3C)s2)cc1	CEM cells HIV-1 protection, formazan growth assay	µM	>	200
CC(C)CC(NC(=O)C(CCC(=O)OCc1ccccc1)NC(=O)OC(C)(C)C)C(=O)NC(COCc1ccccc1)C(=O)NC(Cc1ccccc1)C(=O)Oc1c(Cl)c(Cl)c(Cl)c(Cl)c1Cl (centres undefined) (Boc-E(OBn)LS(Bn)F-X11; configuration not given here)	CEM cells HIV-1 protection, formazan growth assay	µM	=	38.9
